molecular target: Platelet-activating factor acetylhydrolase 2, cytoplasmic (Homo sapiens) (UniProt Q99487); experiment: inhibition of cytoplasmic PAF acetylhydrolase 2 – biochemical, fluorescence polarization, human, primary screen (AID 492956); conditions: recombinant PAFAH2, FP-rhodamine activity probe, at 3.39 µM, hits give high values;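 also: inhibitors block probe labeling of enzyme so polarization drops; 0% = enzyme with DMSO and 100% = wells lacking PAFAH2 protein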
In all, about 340,000 compounds went through this assay and about 3,300 (0.97%) were called active. The sample as a whole holds a higher share of actives than the screen did.
test_readout: inhibition (%)
The reply should be a number in %, with the unit left off.

{"columns": ["compound", "tgt", "uom", "inhibition"],
 "data": [
  ["O=C(CC1Sc2ccccc2NC1=O)NNc1ccc(Cl)c(Cl)c1 (stereo unspecified)", "Platelet-activating factor acetylhydrolase 2, cytoplasmic (Homo sapiens) (UniProt Q99487)", "%", 6.55],
  ["COc1ccc(C(=O)NCC(=O)N/N=C/c2cccnc2)cc1", "Platelet-activating factor acetylhydrolase 2, cytoplasmic (Homo sapiens) (UniProt Q99487)", "%", -1.33],
  ["CCn1c(SCC(=O)N/N=C/c2ccncc2)nc2ccccc21", "Platelet-activating factor acetylhydrolase 2, cytoplasmic (Homo sapiens) (UniProt Q99487)", "%", 14.4],
  ["CCCCCN1CC(O)=C(c2nc(-c3ccc(Cl)cc3)cs2)C1=N", "Platelet-activating factor acetylhydrolase 2, cytoplasmic (Homo sapiens) (UniProt Q99487)", "%", -0.6],
  ["CCOC(=O)C1C(=O)C=C(c2ccc(OC)cc2)CC1c1ccco1 (stereo unspecified)", "Platelet-activating factor acetylhydrolase 2, cytoplasmic (Homo sapiens) (UniProt Q99487)", "%", 6.12]
]}

// recorded inhibition for CCCCCN1CC(O)=C(c2ccccc2)C1=N : -3.01
